Test system: rodent lifetime carcinogenesis bioassay, tumor incidence TD50
assay-protocol: carcinogenic potency in animals, long-term in vivo studies, CPDB compilation (AID 1745844)
test-conditions: rat; strain Donryu; females; in drinking water; site: all sites; lesion: leukemia; dosed 75 weeks; study length 75 weeks
measurement-type: TD50

Value sought: TD50, system rodent lifetime carcinogenesis bioassay, tumor incidence TD50, item CCCCNC(=O)N(CCCC)N=O . Result: 32 mg/kg/day

* * *

Tested on: rodent lifetime carcinogenesis bioassay, tumor incidence TD50
assay-protocol: carcinogenic potency in animals, long-term in vivo studies, CPDB compilation (AID 1745844)
test-conditions: rat; strain Fischer 344; females; in feed; site: ovary; lesion: Sertoli-cell tumor; dosed 103 weeks; study length 104 weeks
measurement-type: TD50

Per the record, O=P(OCC(Br)CBr)(OCC(Br)CBr)OCC(Br)CBr (stereo unspecified) has TD50 of 66.4 mg/kg/day

* * *

System: rodent lifetime carcinogenesis bioassay, tumor incidence TD50
assay-protocol: carcinogenic potency in animals, long-term in vivo studies, CPDB compilation (AID 1745844)
test-conditions: rat; strain Fischer 344; males; in feed; site: colon + rectum; lesion: adenocarcinoma; dosed 66 weeks; study length 66 weeks
measurement-type: TD50

Per the record, Nc1c(Br)cc(Br)c2c1C(=O)c1ccccc1C2=O has TD50 of 1870 mg/kg/day

* * *

Tested on: rodent lifetime carcinogenesis bioassay, tumor incidence TD50
assay-protocol: carcinogenic potency in animals, long-term in vivo studies, CPDB compilation (AID 1745844)
test-conditions: rat; strain Sprague-Dawley; males; in feed; site: small intestine; lesion: leiomyosarcoma; dosed 50 weeks; study length 52 weeks
measurement-type: TD50 (mg/kg/day)
Express it in mg/kg/day; write the number only.

Value sought: TD50, system rodent lifetime carcinogenesis bioassay, tumor incidence TD50, item O=[N+]([O-])c1ccc(-c2nc(N(CCO)CCO)c3ccccc3n2)s1 . Result: 3.6

* * *

Test system: rodent lifetime carcinogenesis bioassay, tumor incidence TD50
assay-protocol: carcinogenic potency in animals, long-term in vivo studies, CPDB compilation (AID 1745844)
test-conditions: rat; strain Charles River CD (Sprague-Dawley); females; inhaled; site: any site (literature study); lesion: malignant tumor; dosed 108 weeks; study length 108 weeks
Activity calls are given as the source filed them. How the calls were made is not given here.
measurement-type: TD50

Per the record, Cc1ccc(N=C=O)cc1N=C=O has TD50 of 1.09 mg/kg/day (inactive)

* * *

System: rodent lifetime carcinogenesis bioassay, tumor incidence TD50
assay-protocol: carcinogenic potency in animals, long-term in vivo studies, CPDB compilation (AID 1745844)
test-conditions: rat; strain Fischer 344; males; by gavage; site: kidney; lesion: tubular-cell adenoma; dosed 104 weeks; study length 105 weeks
measurement-type: TD50 (mg/kg/day)
Express it in mg/kg/day; write the number only.

Value sought: TD50, system rodent lifetime carcinogenesis bioassay, tumor incidence TD50, item CCCC(Cl)CCCC(Cl)CCC(Cl)CCC(Cl)CCC(Cl)CCCC(Cl)CCC (stereo unspecified) . Result: 417

* * *

Tested on: rodent lifetime carcinogenesis bioassay, tumor incidence TD50
assay-protocol: carcinogenic potency in animals, long-term in vivo studies, CPDB compilation (AID 1745844)
test-conditions: rat; strain Fischer 344; females; in feed; site: forestomach; lesion: squamous-cell carcinoma; dosed 104 weeks; study length 104 weeks
measurement-type: TD50

Per the record, O=[N+]([O-])c1cccc2cccnc12 has TD50 of 32.8 mg/kg/day

* * *

Test system: rodent lifetime carcinogenesis bioassay, tumor incidence TD50
assay-protocol: carcinogenic potency in animals, long-term in vivo studies, CPDB compilation (AID 1745844)
test-conditions: rat; strain Sprague-Dawley; females; in feed; site: mammary gland; lesion: several types; types named in the paper; dosed 46 weeks; study length 66 weeks
Entries and their TD50

Below are worked cases with known answers.
molecule	TD50
CC(=O)NCc1nc(-c2ccc([N+](=O)[O-])o2)no1	6.35 mg/kg/day
Nc1nc(N)nc(-c2ccc([N+](=O)[O-])o2)n1	1.71 mg/kg/day
CC(=O)Nc1nc(NC(C)=O)nc(-c2ccc([N+](=O)[O-])o2)n1	14.1 mg/kg/day
Nc1nnc(-c2ccc([N+](=O)[O-])o2)o1	3.67 mg/kg/day
NNc1nc(-c2ccc([N+](=O)[O-])o2)cs1	3.66 mg/kg/day
O=c1[nH]nc(-c2ccc([N+](=O)[O-])o2)o1	8.61 mg/kg/day
O=C(Nc1nc(-c2ccc([N+](=O)[O-])o2)cs1)C(F)(F)F	6.79 mg/kg/day
NC(=O)C(=Cc1ccc([N+](=O)[O-])o1)c1ccco1	11.4 mg/kg/day

Per the record, O=C1OC(CN2CCOCC2)CN1/N=C/c1ccc([N+](=O)[O-])o1 (stereo unspecified) has TD50 of 2.81 mg/kg/day

Per the record, CN(C)/C=N/c1nnc(/C=C/c2ccc([N+](=O)[O-])o2)o1 has TD50 of 22.4 mg/kg/day

Per the record, Nc1ncc([N+](=O)[O-])s1 has TD50 of 44.6 mg/kg/day

* * *

Tested on: rodent lifetime carcinogenesis bioassay, tumor incidence TD50
assay-protocol: carcinogenic potency in animals, long-term in vivo studies, CPDB compilation (AID 1745844)
test-conditions: hamster; strain Syrian Golden; females; by gavage; site: liver; lesion: cholangiocarcinoma; dosed 40 weeks; study length 55 weeks
measurement-type: TD50

Per the record, C=CCN(CC(C)=O)N=O has TD50 of 21.2 mg/kg/day

* * *

Tested on: rodent lifetime carcinogenesis bioassay, tumor incidence TD50
assay-protocol: carcinogenic potency in animals, long-term in vivo studies, CPDB compilation (AID 1745844)
test-conditions: rat; strain Sprague-Dawley; females; in feed; site: mammary gland; lesion: carcinoma; dosed 51 weeks; study length 52 weeks
measurement-type: TD50

Per the record, CCN(Cc1cccc(S(=O)(=O)[O-])c1)c1ccc(C(=C2C=CC(=[N+](C)C)C=C2)c2ccc(N(CC)Cc3cccc(S(=O)(=O)O)c3)cc2)cc1 has TD50 of 573 mg/kg/day

* * *

Test system: rodent lifetime carcinogenesis bioassay, tumor incidence TD50
assay-protocol: carcinogenic potency in animals, long-term in vivo studies, CPDB compilation (AID 1745844)
test-conditions: rat; strain Wistar; males; in drinking water; site: liver; lesion: hemangioma; dosed 45 weeks; study length 52 weeks
measurement-type: TD50 (mg/kg/day)
Express it in mg/kg/day; write the number only.

Per the record, CC(O)CN(CC(C)O)N=O (stereo unspecified) has TD50 of 4.55

* * *

System: rodent lifetime carcinogenesis bioassay, tumor incidence TD50
assay-protocol: carcinogenic potency in animals, long-term in vivo studies, CPDB compilation (AID 1745844)
test-conditions: mouse; strain B6C3F1; females; in feed; site: any site (literature study); lesion: several types; types named in the paper; dosed 96 weeks; study length 104 weeks
Activity calls are given as the source filed them. The rule behind the calls is not given here.
measurement-type: TD50

Per the record, Nc1ccc(N)c(Cl)c1 has TD50 of 1430 mg/kg/day (inactive)

* * *

Entries and their TD50
Test system: rodent lifetime carcinogenesis bioassay, tumor incidence TD50
assay-protocol: carcinogenic potency in animals, long-term in vivo studies, CPDB compilation (AID 1745844)
test-conditions: rat; strain Fischer 344; males; in feed; site: any site (literature study); lesion: several types; types named in the paper; dosed 78 weeks; study length 107 weeks

test-smiles	result
Cc1ccc([N+](=O)[O-])cc1N	43.7 mg/kg/day

Below: the item to evaluate.
Per the record, COc1ccc(N)cc1N has TD50 of 135 mg/kg/day

* * *

System: rodent lifetime carcinogenesis bioassay, tumor incidence TD50
assay-protocol: carcinogenic potency in animals, long-term in vivo studies, CPDB compilation (AID 1745844)
test-conditions: rat; strain F344/DuCrj; females; in drinking water; site: liver; lesion: several types; types named in the paper; dosed 104 weeks; study length 112 weeks
Calls of active or inactive are those of the source. The rule behind the calls is not given here.
measurement-type: TD50

Value sought: TD50, system rodent lifetime carcinogenesis bioassay, tumor incidence TD50, item OCl . Result: 6300 mg/kg/day (inactive)

* * *

System: rodent lifetime carcinogenesis bioassay, tumor incidence TD50
assay-protocol: carcinogenic potency in animals, long-term in vivo studies, CPDB compilation (AID 1745844)
test-conditions: mouse; strain B6C3F1; males; by gavage; site: liver; lesion: hepatocellular adenoma + hepatocellular carcinoma; dosed 103 weeks; study length 105 weeks
Entries and their TD50

Below are worked cases with known answers.
compound	TD50
CC(CCl)OC(C)CCl (stereo not given)	138 mg/kg/day
ClC=C(Cl)Cl	239 mg/kg/day
C=CC(=O)NCO	29.4 mg/kg/day

Value sought: TD50, system rodent lifetime carcinogenesis bioassay, tumor incidence TD50, item CC(Cl)CCl (stereo not given) . Result: 229 mg/kg/day

Value sought: TD50, system rodent lifetime carcinogenesis bioassay, tumor incidence TD50, item Nc1ccc(Cl)cc1 . Result: 49.3 mg/kg/day

* * *

Test system: rodent lifetime carcinogenesis bioassay, tumor incidence TD50
assay-protocol: carcinogenic potency in animals, long-term in vivo studies, CPDB compilation (AID 1745844)
test-conditions: rat; strain Wistar; females; in feed; site: liver; lesion: hepatocellular carcinoma; dosed 70 weeks; study length 70 weeks
measurement-type: TD50

Per the record, CC(C)(Oc1ccc(C2CCCc3ccccc32)cc1)C(=O)O (stereo unspecified) has TD50 of 92.3 mg/kg/day
